Assay: NCI Yeast Anticancer Drug Screen. Data for the mlh1 rad18 strain (AID 175)
Details: S. cerevisiae mlh1 rad18 strain growth inhibition; at 50.0 µM (retest, dose inferred, filed as 5.0); stronger effect = higher value
The panel holds about 79,000 compounds, 15% with a hit somewhere; the sample as a whole holds those more often.
// bucketize growth inhibition: lower bin = under 40%, middle bin = from 40% up to 90%, upper bin = 90% and over

compound: CCOC(=O)c1[nH]cc(C)c1-c1ccc2c(-c3ccccc3)nc3ccccc3n12
label-value: middle bin

compound: COc1ccc(C2SCC(=O)N2c2ccc(-c3ccc(-n4c(-c5ccccc5)nc5ccccc5c4=O)cc3)cc2)cc1 (configuration not stated)
label-value: middle bin

compound: COc1cc(C(c2cc3c(cc2O)OCO3)N2CCN(C(c3cc(OC)c(OC)c(OC)c3)c3cc4c(cc3O)OCO4)CC2)cc(OC)c1OC (configuration not stated)
label-value: middle bin

compound: CN(C)c1ccc(/C=C(/NC(=O)c2ccccc2)c2nc3ccc(Cl)cc3[nH]2)cc1
label-value: lower bin

compound: CCCN(CCC)C(=O)c1nc(N)nc(-c2ccc(OC)cc2)c1-c1ccc(OC)cc1
label-value: lower bin

compound: NCC1CCNCC1
label-value: lower bin

compound: CC1(C)S[C@@H]2[C@H](N3C(=O)c4ccccc4C3=O)CN2[C@H]1NC(=O)N[C@@H]1N2C[C@@H](N3C(=O)c4ccccc4C3=O)[C@H]2SC1(C)C
label-value: lower bin

compound: CC(Nc1ccc(Cl)c(Cl)c1)c1ccncc1 (configuration not stated)
label-value: upper bin

compound: CC(C)(Cl)C(Cl)CC/C(CBr)=C(\Cl)CCl (configuration not stated)
label-value: upper bin

compound: CCCCCCC(/C=C/c1c(Cl)cccc1Cl)=N\O
label-value: middle bin

compound: CC1CCCC(C)C1=O (configuration not stated)
label-value: lower bin

compound: CC1(C(Cl)(Cl)Cl)C=CC(=NO)C=C1 (configuration not stated)
label-value: lower bin

compound: Nc1ccccc1/C=C/c1c[nH]c2ccccc12
label-value: upper bin

compound: Nc1cc2[nH]c(=O)c3cc(Cl)ccc3c2cc1Cl
label-value: upper bin

compound: CC12CCc3ccccc3C1=Nc1ccccc12 (configuration not stated)
label-value: middle bin

compound: COc1ccccc1NC(=O)/C(=C/c1ccccc1)C(C)=O
label-value: lower bin

compound: CCN(CC)CCNc1ccc2nnn3c4ccccc4c(=O)c1c23
label-value: lower bin

compound: CN1C/C(=C\c2ccccc2)C(=O)/C(=C/c2ccccc2)C1
label-value: upper bin

compound: COc1ccc(Cc2nc3ccccc3s2)cc1OC
label-value: upper bin

====

Test: NCI Yeast Anticancer Drug Screen. Data for the sgs1 mgt1 strain (AID 161)
Conditions: S. cerevisiae sgs1 mgt1 strain, at 5.0 µM (retest, dose inferred, filed as 0.5)
The panel holds about 79,000 compounds, 15% with a hit somewhere; the sample as a whole holds those more often. Active and inactive are the calls of the source. Cut-off read from the data, not from the text of the source: active = growth inhibition above about 70%; inactive = the rest. Where a SMILES comes first, the peptide text is derived from it. The star is where a group is joined. Cbz = O=C(OCc1ccccc1)*; CH2Cl = ClC*
Outcome codes: active, inactive

compound: CCc1cccc(CC)c1N=Nc1c(N)nc(N)[nH]c1=O
label-value: inactive
--
compound: COc1ccc(OC)c2c(=S)c3ccccc3[nH]c12
label-value: inactive
--
compound: O=C(c1ccccc1)C(Br)CCCC(Br)C(=O)c1ccccc1 (stereo unspecified)
label-value: inactive
--
compound: c1ccc(C2=NOC3(c4ccccc4)SC4CCCCC4CN23)cc1 (stereo unspecified)
label-value: inactive
--
compound: [O-][n+]1c(-c2ccccc2)c(Cl)c(-c2ccccc2)n1O
label-value: inactive
--
compound: N#CC(C(=O)C(=O)Nc1cccc(C(F)(F)F)c1)c1ccccc1 (stereo unspecified)
label-value: inactive
--
compound: O=C(O)c1ccc2ccccc2c1C(=O)c1cccc2ccccc12
label-value: inactive
--
compound: CCCCCCCCCCCCc1ccc(S(=O)(=O)O)cc1.[Zn+2]
label-value: inactive
--
compound: C[P+](c1ccccc1)(c1ccc(Cl)cc1)c1ccc(Cl)cc1
label-value: inactive
--
compound: O=C1CCC(Cc2ccc(C(F)(F)F)cc2)C(=O)N1 (stereo unspecified)
label-value: inactive
--
compound: CCCCCCCCCCCCNCCNCCN
label-value: inactive
--
compound: CC/C(=N\NC(=S)SC)c1ccccn1
label-value: inactive
--
compound: C(#Cc1ccccc1)Sc1ccccc1
label-value: inactive
--
compound: CC(CC(=O)c1ccc2sc3ccccc3c2c1)C(=O)O (stereo unspecified)
label-value: inactive
--
compound: CC(CO)(CO)Cc1ccccc1
label-value: inactive
--
compound: OC(CN1CCCCC1)c1ccc2c(ccc3ccccc32)c1 (stereo unspecified)
label-value: inactive
--
compound: S=C(N/N=C1/CCCC/C1=N/NC(=S)N1CCOCC1)N1CCOCC1
label-value: inactive
--
compound: CC(=O)SC(C[N+](=O)[O-])c1ccc2c(c1)OCO2 (stereo unspecified)
label-value: inactive
--
compound: CC(C)CC(NC(=O)OCc1ccccc1)C(=O)NC(Cc1ccccc1)C(=O)CCl (stereo not drawn) (Cbz-Leu-Phe-CH2Cl; configuration not given here)
label-value: inactive
--
compound: Cc1ccc(/C=N\NC(=S)N/N=C/c2ccc(C)cc2)cc1
label-value: inactive
--
compound: CCCCCCCCCCCCCCCCCC[n+]1ccc(C(C)CC)cc1 (stereo unspecified)
label-value: inactive
--
compound: Cc1occc1C(=S)Nc1ccc(Cl)c(COC(C)(C)C)c1
label-value: inactive
--
compound: COC(=O)c1ccccc1CC(Cc1ccc2c(c1)CCC2)C(=O)OC (stereo unspecified)
label-value: inactive
--
compound: CN(C(=O)C(Cl)Cl)c1ccc(-c2csc(-c3ccccc3)n2)cc1
label-value: inactive
--
compound: O=C1/C(=C/c2cccc([N+](=O)[O-])c2)CCCc2ccccc21
label-value: inactive
--
compound: O=[N+]([O-])C1=Cc2cc(Cl)ccc2OC1c1cccc2ccccc12 (stereo unspecified)
label-value: active
--
compound: COS(=O)c1cc(Cl)cc(Cl)c1OC(=O)CSSCC(=O)Oc1c(Cl)cc(Cl)cc1S(=O)OC (stereo unspecified)
label-value: active
--
compound: CN(NC(=O)c1cccs1)C1=NCCCN1
label-value: inactive
--
compound: CCCCCCCCCCCCCCCCP(=O)([O-])OCC[N+](C)(C)C
label-value: inactive
--
compound: CC1Cc2ccc3c(c2C(c2ccc4c(c2)OCO4)C1C)OCO3 (stereo unspecified)
label-value: inactive
--
compound: Cc1ccc(S(=O)(=O)N/N=C/Cc2ccccc2)cc1
label-value: inactive
--
compound: O=C(O)/C(Cl)=C(/Cl)C(=O)Nc1cccc(Cl)c1
label-value: inactive
--
compound: CC(=O)OCC1OC(c2cccc3c2c2ccccc2n3S(=O)(=O)c2ccccc2)C(O)C1O (stereo unspecified)
label-value: inactive
--
compound: CCN(CC)c1cccc(OC(=O)Nc2cccc(C(F)(F)F)c2)c1
label-value: inactive
--
compound: O=[N+]([O-])c1cccc2c1[nH]c1c(-c3ccccc3)nccc12
label-value: inactive
--
compound: CCCCCN=Cc1c(O)c(O)c(C(C)C)c2cc(C)c(-c3c(C)cc4c(C(C)C)c(O)c(O)c(C=NCCCCC)c4c3O)c(O)c12
label-value: inactive
--
compound: O=C1C=CC(=O)N1c1ccc(-c2nc3ccccc3o2)cc1
label-value: active
--
compound: Cc1ccccc1Oc1ccccc1N
label-value: inactive
--
compound: COc1cc(C=Nc2ccc(Cl)cc2)ccc1OC(=O)c1ccccc1
label-value: inactive
--
compound: COc1ccc(OC)c2c1C=C[C@H](C1(C)SCCS1)C2C(C)=O (stereo partly specified)
label-value: inactive
--
compound: O=C(c1ccccc1)C1Cc2ccccc2C1=O (stereo unspecified)
label-value: inactive
--
compound: Cc1cc(-c2ccccc2)c(C)c(-c2ccccc2)c1-c1ccccc1
label-value: inactive
--
compound: CCC[CH2][Sn]([CH2]CCC)([O]C(=O)c1cccc(F)c1F)[O]C(=O)c1cccc(F)c1F
label-value: active
--
compound: CSC(=S)n1nc(-c2cccs2)c(N=Nc2ccc(Cl)cc2)c1C(F)(F)F
label-value: inactive
--
compound: O=S1CCS(=O)C1c1ccccc1 (stereo unspecified)
label-value: inactive
--
compound: CC(C)(CCCCC(C)(C)NCC1COc2ccccc2O1)NCC1COc2ccccc2O1 (stereo unspecified)
label-value: inactive

====

Test: NCI Yeast Anticancer Drug Screen. Data for the cln2 rad14 strain (AID 165)
Details: S. cerevisiae cln2 rad14 strain, at 50.0 µM, stronger effect = higher value
This is part of a sample that, as a whole, favours compounds with a hit. Of some 79,000 tested, about 15% had one in any assay.
// bucketize growth inhibition: band A = under 40%, band B = from 40% up to 70%, band C = 70% and over

molecule: Cc1ccc(-n2cc(-c3ccc(Cl)cc3)c3c(NN)ncnc32)cc1
label-value: band C

molecule: COc1cc(O)c2c(c1)C(=O)c1cc3c(c(O)c1C2=O)C(OC1OC(C)C(O)C(O)C1OC)C(OC)C(C)(O)C3=O (configuration not stated)
label-value: band C

molecule: COC(=O)Cn1/c(=N\N=C(/C)c2ccc(C)cc2)sc2ccccc21
label-value: band A

molecule: CCCCCCCCCC(=O)CC(=O)c1ccc(O)cc1O
label-value: band C

molecule: CC(C)/C(Cl)=N\OC(=O)Nc1cccc(F)c1
label-value: band A

molecule: Oc1ccccc1C1N(Cc2ccc(Cl)cc2)CCN1Cc1ccc(Cl)cc1
label-value: band B

molecule: O=C(c1ccccc1)C(Br)CCCC(Br)C(=O)c1ccccc1 (configuration not stated)
label-value: band B

molecule: CCOC(=O)C1=C(c2ccccc2)SC(c2ccccc2)N(C(C)C)C1=O (configuration not stated)
label-value: band C

molecule: CCCCCCC(Sc1n[nH]c(=O)[nH]c1=O)C(=O)OCC (configuration not stated)
label-value: band B

molecule: CNC(=O)c1cccc2c(Nc3ccc(NS(C)(=O)=O)cc3OC)c3cccc(C)c3nc12
label-value: band A

molecule: CN(NC(=O)CC(=O)NN(C)C(=S)c1ccccc1)C(=S)c1ccccc1
label-value: band C

molecule: COc1ccc(C(=O)c2cc(Cl)ccc2N)cc1
label-value: band C

molecule: C[N+]1=C(/C=C\c2ccc(O)c3ccccc23)C(C)(C)c2ccccc21
label-value: band B

molecule: CCOC(=O)CC1C(=O)N(c2nc(-c3ccc(Br)cc3)cs2)N=C1C (configuration not stated)
label-value: band A

molecule: CCCCCCCC[N+](C)(C)Cc1ccc(C[N+](C)(C)CCCCCCCC)cc1
label-value: band A

molecule: COc1ccc(CSC(=S)Nc2cc(C)c(C)cc2[N+](=O)[O-])cc1
label-value: band C

molecule: COc1ccc(CCCC(=O)O)c2c(OC)cccc12
label-value: band C

molecule: CN(C)c1ccc(N=Nc2ccc(/C=C3\CCOC3=O)cc2)cc1
label-value: band A

molecule: CCCCc1c2c(nc3c1CCC/C3=C\c1ccccc1)C(=O)C(CN(C)C)CC2 (configuration not stated)
label-value: band C

molecule: CC(=O)Nc1ccc(O)c(=O)cc1
label-value: band A
